Data origin, for the record: the supplement of paper PMC7877785

assay.notes: self-splicing fitness, log relative to wild type (ln ratio); higher = more splicing; Tetrahymena group I intron in knt gene, E. coli kanamycin selection, DiMSum; sequences stand for … in CUCUCU…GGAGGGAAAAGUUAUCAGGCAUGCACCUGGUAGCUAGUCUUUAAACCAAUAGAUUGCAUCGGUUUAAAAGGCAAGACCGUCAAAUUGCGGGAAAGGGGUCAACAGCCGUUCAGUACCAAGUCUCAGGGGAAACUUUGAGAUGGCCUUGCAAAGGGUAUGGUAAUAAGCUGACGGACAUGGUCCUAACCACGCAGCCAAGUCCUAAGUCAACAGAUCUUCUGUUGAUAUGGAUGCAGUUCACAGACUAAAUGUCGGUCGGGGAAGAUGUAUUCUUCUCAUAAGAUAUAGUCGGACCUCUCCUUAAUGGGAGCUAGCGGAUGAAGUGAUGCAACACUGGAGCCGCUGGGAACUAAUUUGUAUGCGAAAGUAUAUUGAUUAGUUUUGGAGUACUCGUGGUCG;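 also: selection with 25 µg/mL kanamycin versus none on LB agar overnight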
measurement.context: 30 °C
Overview of reported self-splicing fitness (ln) across a group of sequences:
Give the figure only, with no unit attached.

Consider the reported self-splicing fitness (ln) for these sequences:
{"query.sequence": "CUAUAGCAAUAUUACGGCAG", "self-splicing fitness (ln)": -1.51}
{"query.sequence": "GCUGAGCAAUAUUACGAUCC", "self-splicing fitness (ln)": -1.34}
{"query.sequence": "GGACAGCAAUAUUACGACGU", "self-splicing fitness (ln)": -0.177}
{"query.sequence": "CUACAGCAAUAUUACGGGUU", "self-splicing fitness (ln)": -3.18}
{"query.sequence": "GGCUAGCAAUAUUACGCCAG", "self-splicing fitness (ln)": -1.55}
{"query.sequence": "CUCAAGCAAUAUUACGUUGG", "self-splicing fitness (ln)": -2.93}

Request: Need self-splicing fitness (ln), item CGUUAGCAAUAUUACGGUUC
Result: -3.01

Request: Need self-splicing fitness (ln), item CCAGAGCAAUAUUACGUUGA
Result: -2.69

Request: Need self-splicing fitness (ln), item UGAAAGCAAUAUUACGUACC
Result: -1.36

Request: Need self-splicing fitness (ln), item AAAUAGCAAUAUUACGCUUC
Result: -3.19

Request: Need self-splicing fitness (ln), item AGAUAGCAAUAUUACGGUAU
Result: -1.43

Request: Need self-splicing fitness (ln), item GAGGAGCAAUAUUACGGGAA
Result: -2.81

Request: Need self-splicing fitness (ln), item UUGCAGCAAUAUUACGCAAU
Result: -3.95

Request: Need self-splicing fitness (ln), item AGCUAGCAAUAUUACGUAUA
Result: -2.28

Request: Need self-splicing fitness (ln), item GAAUAGCAAUAUUACGUGUG
Result: -2.23

Request: Need self-splicing fitness (ln), item CGAGAGCAAUAUUACGAGUU
Result: -3.56

Request: Need self-splicing fitness (ln), item GUGAAGCAAUAUUACGAAGG
Result: -1.91

Request: Need self-splicing fitness (ln), item CUAAAGCAAUAUUACGUCAA
Result: -4.32

Request: Need self-splicing fitness (ln), item CAACAGCAAUAUUACGUGGU
Result: -4.16

Request: Need self-splicing fitness (ln), item AGAUAGCAAUAUUACGAUCC
Result: -1.68

Request: Need self-splicing fitness (ln), item CAGUAGCAAUAUUACGGGAU
Result: -4.35

Request: Need self-splicing fitness (ln), item CCUCAGCAAUAUUACGCGGA
Result: -2.68

Request: Need self-splicing fitness (ln), item AGAAAGCAAUAUUACGGCCC
Result: 0.946
